Tgt: MK2 (Homo sapiens, UniProt P49137)
Sequence (P49137 whole entry): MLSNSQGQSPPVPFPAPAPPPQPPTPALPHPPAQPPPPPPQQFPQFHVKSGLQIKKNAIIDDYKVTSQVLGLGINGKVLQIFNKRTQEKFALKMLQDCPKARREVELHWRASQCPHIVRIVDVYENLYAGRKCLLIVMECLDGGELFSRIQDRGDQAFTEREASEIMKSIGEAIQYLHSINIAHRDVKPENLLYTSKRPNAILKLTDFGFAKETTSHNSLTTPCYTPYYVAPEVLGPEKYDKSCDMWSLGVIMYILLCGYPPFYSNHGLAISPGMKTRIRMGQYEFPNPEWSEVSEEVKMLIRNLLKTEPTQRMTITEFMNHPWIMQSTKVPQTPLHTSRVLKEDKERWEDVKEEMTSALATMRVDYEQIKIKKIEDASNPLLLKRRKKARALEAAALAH
Method notes: MK2 degradation in human THP-1 monocytic cells (MSD, 24 h)
Assay type: cell-based
Set-up: endogenous in cells
Assay conditions: THP-1 cells, read-out: MK2 MSD THP-1 degradation 24 h GMean External Abs DC50
Value kind: DC50

>  <Compound>
C[C@@H]1CNc2c(sc3ccc4nc(N5CCN(CCC6CCN(c7ccc8c(c7)n(C)c(=O)n8C7CCC(=O)NC7=O)CC6)CC5)ccc4c23)C(=O)N1 (some centres unmarked)

>  <Tgt>
MK2 (Homo sapiens, UniProt P49137)

>  <DC50>
< 1 nM

$$$$

Please report the recorded DC50 for C[C@@H]1CNc2c(sc3ccc4nc(-c5ccc(N6CCC(CN7CCC(c8ccc9c(c8)n(C)c(=O)n9C8CCC(=O)NC8=O)CC7)CC6)cc5)ccc4c23)C(=O)N1 (some centres unmarked) . < 1 nM

Please report the recorded DC50 for C[C@@H]1CNc2c(sc3ccc4nc(N5CCN(C6CC7(CCN(c8ccc9c(c8)n(C)c(=O)n9C8CCC(=O)NC8=O)CC7)C6)CC5)ccc4c23)C(=O)N1 (some centres unmarked) . < 1 nM

Please report the recorded DC50 for Cc1cc(N2CCN(CC3CN(c4ccc5c(c4)n(C)c(=O)n5C4CCC(=O)NC4=O)C3)CC2)ccc1-c1ccc2c(ccc3sc4c(c32)NC[C@@H](C)NC4=O)n1 (some centres unmarked) . < 1 nM

Please report the recorded DC50 for C[C@@H]1CNc2c(sc3ccc4nc(-c5cncc(N6CCN(C(=O)COCCOCCc7cccc8c7n(C)c(=O)n8C7CCC(=O)NC7=O)CC6)c5)ccc4c23)C(=O)N1 (some centres unmarked) . 1 to 10 nM
